These measurements were taken from patent US10584115B2.

# melting point listing for each entry below

Field: example entries. Status: answers known.
Report melting point for Fc1ccc2nc(C(F)F)c(-c3cncc(Nc4ccc(OC(F)F)cc4)n3)n2c1 [compound 473]
167 to 169 °C

Give a short answer stating reported melting point for Cc1nc2ccc(F)cn2c1-c1cncc(Nc2ccc(OC(F)F)nc2)n1 [compound 480] .
204 to 207 °C

Give the measured melting point for Cc1nc2ccc(F)cn2c1-c1cncc(Nc2ccc(OC(F)(F)F)cc2)n1 [compound 246]
163 to 165 °C

Specify measured melting point for CCn1nc(C)c(-c2cncc(Nc3ccc(OC(F)(F)F)cc3)n2)c1C [compound 84] .
142 to 143 °C

Please report the measured melting point for N#Cc1cc(Nc2ccc(OC(F)F)cc2)nc(-n2c(C3CC3)nc3c(F)cc(F)cc32)c1 [compound 475]
168 to 170 °C

Next:
Please look at this molecule and report its melting point: Cc1nn(CCO)c(C)c1-c1cncc(Nc2ccc(C(F)(F)F)cc2)n1 [compound 335]
172 to 174 °C

Recall and state the measured melting point for Cc1nc2ccc(F)cn2c1-c1cc(C#N)cc(Nc2ccc(OC(F)F)cc2)n1 [compound 248] .
221 to 223 °C

Return melting point (reported value) for this molecule: CCc1nc2ccc(F)cc2n1-c1cncc(Nc2cccc(F)c2)n1 [compound 626]
228 to 230 °C

Assign melting point to the following record: Cc1nc(Nc2cccc(-c3c(C(F)(F)F)nc4ccccn34)n2)sc1C [compound 149]
227 to 228 °C

Output melting point of COc1ccc(Nc2cncc(-c3cccc4nc(C5CCC5)cn34)n2)cc1 [compound 116]
223 to 225 °C

Please give the documented melting point of N#Cc1cc(Nc2ccc(C(F)(F)F)c(F)c2)nc(-c2c(C3CC3)nc3ccc(F)cn23)c1 [compound 347]
256 to 258 °C

Tell me measured melting point for Cc1nn(C)c(C)c1-c1cc(C#N)cc(Nc2ccc(C(F)(F)F)cc2)n1 [compound 263] please.
182 to 183 °C

State, in one line, measured melting point of Cc1nc2ccc(F)cc2n1-c1cncc(Nc2ccc(C(F)(F)F)cc2)n1 [compound 228]
243 to 245 °C

Retrieve melting point measured for FC(F)(F)c1ccc(Nc2cncc(-c3c(C4CC4)nc4ccccn34)n2)cc1 [compound 129] and print it.
215 to 217 °C

* * *

The following compounds are shown together with reported melting point values.

Look over these answered cases.
Complete the entry with melting point for Cc1cn2c(-c3cc(C#N)cc(Nc4ccc(C(F)(F)F)cc4)n3)c(C3CC3)nc2c(C)n1
150 to 152 °C

Output melting point of CCOC(=O)n1nc(C)c(-c2cncc(Nc3ccc(OC(F)F)cc3)n2)c1C
92 to 93 °C

Check the records and state melting point for Cc1nc2ccc(F)cc2n1-c1cncc(Nc2ccc(N)cc2)n1
189 to 191 °C

State, in one line, measured melting point of CS(=O)(=O)c1ccc(Nc2cncc(-c3c(C(F)(F)F)nc4ccccn34)n2)cc1
256 to 258 °C

Look up melting point of CCc1nn(C)c(CC)c1-c1cncc(Nc2ccc(C(F)(F)F)cc2)n1 and report it.
59 to 60 °C

Hello, please tell me recorded melting point for this one: Cc1nc2cc(F)ccc2n1-c1cncc(Nc2ccc(C(F)(F)F)cc2)n1
272 to 275 °C

Tell me its melting point given Cc1nc2ncc(F)cn2c1-c1cc(C#N)cc(Nc2ccc(C(F)(F)F)cc2)n1 as the entry.
290 to 292 °C

Shift focus to the following entry.
// fetch melting point given entry Cc1nc2ccc(F)cn2c1-c1cncc(Nc2ccccc2F)n1
218 to 220 °C
